# Tested on: K562 CRISPRi cells
# measurementNotes: Perturb-seq pooled growth measurement (sgRNA counts, growth phenotype γ, relative activity)
# Assay type: cell-based, human
# conditions: γ relative to perfectly matched sgRNA (_00) of the same gene, day 5
# Excerpt: Finally, we sought to use intermediate-activity sgRNAs to explore relationships between expression levels of various genes and the resulting cellular phenotypes. […] In addition to the single-cell transcriptomes, we measured bulk growth phenotypes conferred by sgRNAs in these cells. […]
Criterion: relative_activity_day5 strictly under 0.5. Met: class 1. Not met: class 0.

substance	assayTarget	classAssignment
RPS15_ −_1438413.23-P1P2_01 (guide GACCAAACCGATCTCTTCTG; listed as DNA, chemistry not fully specified)	K562 CRISPRi cells	class 1
MTOR_ + _11322547.23-P1P2_06 (guide GGGCAGGGGGGCTGAAGCGG; listed as DNA, chemistry not fully specified)	K562 CRISPRi cells	class 0
GNB2L1_ + _180670873.23-P1P2_13 (guide GTGCAAGGCGGCGGCGGGAG; listed as DNA, chemistry not fully specified)	K562 CRISPRi cells	class 0
RPS14_ + _149829238.23-P1P2_08 (guide GAGGCCCGGGCTCGACAATC; listed as DNA, chemistry not fully specified)	K562 CRISPRi cells	class 1
CAD_ + _27440280.23-P1P2_03 (guide GGCTGGTGAGAAGCCGGGCG; listed as DNA, chemistry not fully specified)	K562 CRISPRi cells	class 0
RPL9_ + _39460483.23-P1P2_00 (guide GGATGTTTCTGTGCTCGTGG; listed as DNA, chemistry not fully specified)	K562 CRISPRi cells	class 0
DBR1_ + _137893744.23-P1P2_07 (guide GTTTGCAGGGGTCTACACCC; listed as DNA, chemistry not fully specified)	K562 CRISPRi cells	class 0
GATA1_ −_48645022.23-P1P2_06 (guide GTGAGCTTGCGACATCCCCA; listed as DNA, chemistry not fully specified)	K562 CRISPRi cells	class 0
COX11_ + _53045977.23-P1P2_00 (guide GGCTCTGGCGTCCTGGATGG; listed as DNA, chemistry not fully specified)	K562 CRISPRi cells	class 0
HSPA5_ + _128003624.23-P1P2_06 (guide GAGCCGAGTAGACGACGGTG; listed as DNA, chemistry not fully specified)	K562 CRISPRi cells	class 1
BCR_ + _23523092.23-P1P2_13 (guide GCGCGCGGGGCCCATCTCAG; listed as DNA, chemistry not fully specified)	K562 CRISPRi cells	class 1
GNB2L1_ + _180670873.23-P1P2_00 (guide GTGCAAGGCGGCGGCAGGAG; listed as DNA, chemistry not fully specified)	K562 CRISPRi cells	class 0
HSPE1_ + _198365089.23-P1P2_00 (guide GGAGACTCGCAGTCCGGCCC; listed as DNA, chemistry not fully specified)	K562 CRISPRi cells	class 0
RPS15_ −_1438413.23-P1P2_12 (guide GACCAAAGCGATCTCTTGTG; listed as DNA, chemistry not fully specified)	K562 CRISPRi cells	class 1
EIF2S1_ −_67827080.23-P1P2_00 (guide GAGCGAAGCGCACGCTGAGG; listed as DNA, chemistry not fully specified)	K562 CRISPRi cells	class 0
CDC23_ −_137548987.23-P1P2_08 (guide GACAGCCATCGGGACCATGG; listed as DNA, chemistry not fully specified)	K562 CRISPRi cells	class 0
GATA1_ −_48645022.23-P1P2_04 (guide GTGAGCTTACCACATCCCCA; listed as DNA, chemistry not fully specified)	K562 CRISPRi cells	class 0
POLR1D_ + _28196016.23-P1_00 (guide GGGAAGCAAGGACCGACCGA; listed as DNA, chemistry not fully specified)	K562 CRISPRi cells	class 0
POLR1D_ + _28196016.23-P1_07 (guide GGGAAGCAAGGAGCGACCGA; listed as DNA, chemistry not fully specified)	K562 CRISPRi cells	class 1
ALDOA_ + _30077139.23-P1P2_13 (guide GGTCACCAGGACCCCTTTTG; listed as DNA, chemistry not fully specified)	K562 CRISPRi cells	class 1
CAD_ + _27440280.23-P1P2_07 (guide GGCTGGAGCGAAGCCGGGCG; listed as DNA, chemistry not fully specified)	K562 CRISPRi cells	class 0
GNB2L1_ + _180670873.23-P1P2_07 (guide GTGCAAGGCGGGGGCAGGAG; listed as DNA, chemistry not fully specified)	K562 CRISPRi cells	class 0
